Measured on: Luciferin 4-monooxygenase (Photinus pyralis) (UniProt P08659)
Sequence (P08659 whole entry, looked up): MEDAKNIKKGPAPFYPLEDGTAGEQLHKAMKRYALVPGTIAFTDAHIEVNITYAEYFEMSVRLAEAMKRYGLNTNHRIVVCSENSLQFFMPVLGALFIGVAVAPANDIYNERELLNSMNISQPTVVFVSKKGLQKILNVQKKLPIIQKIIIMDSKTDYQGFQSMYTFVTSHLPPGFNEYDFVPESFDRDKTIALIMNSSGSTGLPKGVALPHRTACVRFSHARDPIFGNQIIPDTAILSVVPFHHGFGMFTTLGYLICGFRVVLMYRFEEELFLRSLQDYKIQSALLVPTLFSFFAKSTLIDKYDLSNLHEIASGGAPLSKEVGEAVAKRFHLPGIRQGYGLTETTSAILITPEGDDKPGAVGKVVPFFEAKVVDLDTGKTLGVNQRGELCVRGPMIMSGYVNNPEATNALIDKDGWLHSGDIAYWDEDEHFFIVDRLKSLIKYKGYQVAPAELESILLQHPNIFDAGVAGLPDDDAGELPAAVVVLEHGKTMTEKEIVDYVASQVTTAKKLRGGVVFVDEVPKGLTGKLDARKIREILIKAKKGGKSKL
Assay notes: qHTS profiling assay for firefly luciferase inhibitor/activator using purifed enzyme and Km concentrations of substrates (counterscreen for miR-21 project); further: nearly all actives have a fitted effect of over 55% in size; further: potency means the concentration at half of the fitted maximal effect
Condition description: purified FLuc, luminescence inhibition; series mostly up to 57.5 µM
Among all 360,000 compounds or so, about 25,000 (6.9%) were called active. Roughly 9% stayed inconclusive and do not appear here. The sample as a whole holds a higher share of actives than the screen did.
Attribute measured: Potency

O=S(=O)(NCc1ccccc1Cl)c1cnc[nH]1 inactive
C/C(N)=C(/C#N)C(=O)COC(=O)c1cc(-c2ccc(C)cc2)nc2ccccc12 9.53 µM (active)
N/C(=N\OC(=O)c1cc(-c2ccccc2)nc2ccccc12)c1ccncc1 21.3 µM (active)
C/C(N)=C(/C#N)C(=O)COC(=O)C1=NN(c2ccccc2)C(=O)CC1 inactive
O=C(O/N=C(/c1ccccc1)c1ccncc1)c1ccccc1[N+](=O)[O-] inactive
COc1ccc(-c2cc(C(=O)N(C)Cc3ccccc3)c3ccccc3n2)cc1 10.7 µM (active)
COc1ccc(C2=NS(=O)(=O)N(C)C(C(=O)N(C)Cc3ccccc3)=C2)cc1 inactive
COc1ccc(CCNC(=O)COC(=O)c2cc(=O)c3ccccc3o2)cc1 inactive

*Q* May I ask what Potency has been recorded for COC(=O)CNC(=O)c1cc(-c2ccncc2)nc2ccccc12 ?
*A* inactive

*Q* One more compound: COc1ccc(CNC(=O)Cn2nnc(-c3ccc(S(C)(=O)=O)cc3)n2)cc1
*A* inactive
